test: MRT (0 to t) in Sprague-Dawley rat at 10 mg/kg, po by LC-MS/MS analysis; type: ADME, organism-based; conditions: in vivo
Assay readout: MRT last (h)
Could you give me the number in h? Just the number is fine.

INPUT: Given the molecule CN(Cc1ccc(N2CCN(Cc3ccc(F)cc3Br)CC2)cc1)CC(O)(Cn1cncn1)c1ccc(F)cc1F (stereo unspecified) , write its reported MRT last.
OUTPUT: 1.12

----------
assay: Cytotoxicity against HEK293T cells assessed as inhibition of cell growth incubated for 72 hrs by MTT assay; format: toxicity, cell-based, HEK-293T; conditions: human
Assay readout: IC50 at 72 h

Molecule | IC50 at 72 h
CN(Cc1ccc(I)cc1)CC(O)(Cn1cncn1)c1ccc(F)cc1F (stereo not drawn) | > 10 µM
CN(Cc1ccc(N2CCN(Cc3ccc(F)cc3Br)CC2)cc1)CC(O)(Cn1cncn1)c1ccc(F)cc1F (stereo not drawn) | 4.99 µM

INPUT: Given the molecule `OC(Cn1cncn1)(Cn1cncn1)c1ccc(F)cc1F` , write its reported IC50 at 72 h.
OUTPUT: > 40 µM
